System: 616215-338-R-J1-PDC tumor spheroids, viability
Test: Anticancer human tumor 616215-338-R-J1-PDC patient-derived colon adenocarcinoma cell line growth inhibition [GQUAD]
Conditions: curve of first compound; second compound 0.0316 µM; spheroids with HUVEC and MSC
PARAMETER MEASURED: IC50

| MOLECULE | IC50 |
| --- | --- |
| C#Cc1c(F)ccc2cc(O)cc(-c3ncc4c(N5CC6CCC(C5)N6)nc(OCC56CCCN5CC(F)C6)nc4c3F)c12 (centres undefined) + CN(C)c1ccc(Nc2c3ccc(NC(=O)CCN4CCCC4)cc3nc3cc(NC(=O)CCN4CCCC4)ccc23)cc1 | > 10 µM |
| CC(=O)O[C@H]1C(=O)[C@@]2(C)[C@H]([C@H](OC(=O)c3ccccc3)[C@]3(O)C[C@H](OC(=O)[C@H](O)[C@@H](NC(=O)c4ccccc4)c4ccccc4)C(C)=C1C3(C)C)[C@]1(OC(C)=O)CO[C@@H]1C[C@@H]2O + CN(C)c1ccc(Nc2c3ccc(NC(=O)CCN4CCCC4)cc3nc3cc(NC(=O)CCN4CCCC4)ccc23)cc1 | < 0.0316 µM |
| C=CC(=O)N1CCN(c2nc(=O)n(-c3c(C)ccnc3C(C)C)c3nc(-c4c(O)cccc4F)c(F)cc23)C(C)C1 (centres undefined) + Cc1[nH]c2ccc(F)cc2c1-c1nc2c3cccnc3c3ncccc3c2[nH]1 | > 10 µM |

Turning now to a further record.
What value of IC50 has been reported for the following molecule? Nc1ccn(C2OC(CO)C(O)C2(F)F)c(=O)n1 (centres undefined) + Cc1cnc(CNC(=O)c2c(=O)c3ccc(N4CCCN(C)CC4)nc3n3c2sc2ccccc23)cn1 < 0.0316 µM

====

Tested on: 616215-338-R-J1-PDC tumor spheroids, viability
Assay: Anticancer human tumor 616215-338-R-J1-PDC cell line growth inhibition [GQUAD];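 also: spheroids exposed to agents for 7 days before readout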;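 as to viability, T/C: percent viability relative to DMSO vehicle control wells taken as 100%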
Settings: second compound 0.316 µM; first compound 0.316 µM; stronger effect = lower value; spheroids with HUVEC and MSC
PARAMETER MEASURED: viability, T/C (%)
Use % as the unit, but write only the number.

| COMPOUND | viability, T/C, % |
| --- | --- |
| Cc1cccc(N(C)C(=O)C2C(O)CCN2c2nc(C)cc(C(F)(F)F)c2C#N)c1 (stereo unspecified) + CN(C)c1ccc(Nc2c3ccc(NC(=O)CCN4CCCC4)cc3nc3cc(NC(=O)CCN4CCCC4)ccc23)cc1 | 104 |
| O=c1[nH]cc(F)c(=O)[nH]1 + Cc1[nH]c2ccc(F)cc2c1-c1nc2c3cccnc3c3ncccc3c2[nH]1 | 57.1 |
| CC[C@@]1(O)C(=O)OCc2c1cc1n(c2=O)Cc2cc3c(CN(C)C)c(O)ccc3nc2-1 + Cc1[nH]c2ccc(F)cc2c1-c1nc2c3cccnc3c3ncccc3c2[nH]1 | 38.9 |
| CC1COCCN1c1cc(C2(O)CC3CCC(C2)O3)c2cnn(-c3ccn[nH]3)c2n1 (stereo unspecified) + Cc1[nH]c2ccc(F)cc2c1-c1nc2c3cccnc3c3ncccc3c2[nH]1 | 42.4 |
| CC1COCCN1c1cc(C2(S(C)(=N)=O)CC2)nc(-c2ccnc3[nH]ccc23)n1 (stereo unspecified) + Cc1[nH]c2ccc(F)cc2c1-c1nc2c3cccnc3c3ncccc3c2[nH]1 | 99.8 |

Turning now to a further record.
What value of viability, T/C has been reported for the following compound? Nc1ccn(C2OC(CO)C(O)C2(F)F)c(=O)n1 (stereo unspecified) + Cc1cnc(CNC(=O)c2c(=O)c3ccc(N4CCCN(C)CC4)nc3n3c2sc2ccccc23)cn1 17.7

====

Tested on: 616215-338-R-J1-PDC tumor spheroids, viability
Assay: Anticancer human tumor 616215-338-R-J1-PDC cell line growth inhibition [GQUAD];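 also: spheroids exposed to agents for 7 days before readout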
Conditions: curve of first compound; second compound 0.0316 µM; spheroids with HUVEC and MSC
pIC50: −log10 of the molar value.
PARAMETER MEASURED: pIC50

In the examples that follow, each entry is paired with its recorded pIC50.
| COMPOUND | PARAMETER MEASURED | MEASURED RESULT |
| --- | --- | --- |
| COc1ccc([C@@H](O)c2cc(-c3ncnc4cc(N5CCOCC5)ccc34)c(F)cc2Cl)nn1 + Cc1[nH]c2ccc(F)cc2c1-c1nc2c3cccnc3c3ncccc3c2[nH]1 | pIC50 | < 5.00 |
| O=C(c1cc(Cc2n[nH]c(=O)c3ccccc23)ccc1F)N1CCN(C(=O)C2CC2)CC1 + Cc1cnc(CNC(=O)c2c(=O)c3ccc(N4CCCN(C)CC4)nc3n3c2sc2ccccc23)cn1 | pIC50 | < 5.00 |

Turning now to a further record.
What value of pIC50 has been reported for the following compound? O=C(c1cc(Cc2n[nH]c(=O)c3ccccc23)ccc1F)N1CCN(C(=O)C2CC2)CC1 + CN(C)c1ccc(Nc2c3ccc(NC(=O)CCN4CCCC4)cc3nc3cc(NC(=O)CCN4CCCC4)ccc23)cc1 < 5.00

Source: PubChem BioAssay AID2060493
